# system.name: Dickkopf-related protein 1 (Homo sapiens) (UniProt O94907)
# Sequence (O94907 whole entry, looked up): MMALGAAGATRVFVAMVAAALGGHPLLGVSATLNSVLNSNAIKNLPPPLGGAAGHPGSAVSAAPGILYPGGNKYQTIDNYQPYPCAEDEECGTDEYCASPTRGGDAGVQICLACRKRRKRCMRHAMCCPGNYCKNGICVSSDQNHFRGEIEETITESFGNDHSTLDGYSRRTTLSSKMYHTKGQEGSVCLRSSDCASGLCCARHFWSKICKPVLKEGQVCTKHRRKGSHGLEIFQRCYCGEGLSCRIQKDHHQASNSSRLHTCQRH
# assay.notes: small molecules binding DKK1 protein – biochemical, small-molecule microarray, 635 nm fluorescence scan, primary screen (AID 1106);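 further: score merges emission near 667 nm with signal to noise over three replicate slides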
# test.parameters: higher = more signal
Decision: composite z-score >= 0.2 yields y, all other cases yield n.

These solved cases illustrate the format of a correct answer.
Entry "C=CCNC(=O)[C@@H]1[C@H]2C(=O)O[C@H](c3ccccc3)[C@H](c3ccccc3)N2[C@H](c2ccc(OCCO)cc2)[C@@]12C(=O)Nc1ccc(C#CC3(O)CCCCCC3)cc12" : is its composite z-score no less than 0.2?
y

Entry "CC(C)c1nc2cc(Br)ccc2c(=O)o1" : is its composite z-score no less than 0.2?
y

Entry CC=CC(O)C1C=CC2C(=O)NC(=O)C2N1Nc1ccc(Cl)cc1Cl (configuration not stated) : is its composite z-score no less than 0.2?
y

Entry "CN(C)CCCCNC(=O)[C@H]1C[C@H]2C(=O)NCC(=O)N2[C@H]1c1ccc(O)cc1" : is its composite z-score no less than 0.2?
n

New cases:
Entry "C=C(/C(=C/C[C@@H](OC(C)=O)c1cccc(OCCO)c1)c1cnc2ccccc2c1)C(C)C" : is its composite z-score no less than 0.2?
y

Entry "NC(=O)NCC#Cc1ccc2c(c1)[C@]1(C(=O)N2)[C@H](c2ccc(OCCO)cc2)N2[C@H](c3ccccc3)[C@H](c3ccccc3)OC(=O)[C@H]2[C@@H]1C(=O)NC[C@H](O)c1ccccc1" : is its composite z-score no less than 0.2?
n

Entry "COC(=O)[C@@]1(Cc2ccc(OC)cc2)[C@H]2c3cc(C(=O)N4CCCC4)n(Cc4ccc(C(F)(F)F)nc4)c3C[C@H]2CN1C(=O)c1ccccc1" : is its composite z-score no less than 0.2?
n

Entry "CCOC(=O)C[C@H]1[C@H](OC(=O)c2ccccc2-c2ccccc2)[C@@H](NC(=O)C2CCCCC2)c2cc(OCCCO)ccc2N1C(=O)c1ccc2ccccc2n1" : is its composite z-score no less than 0.2?
y

Entry "COCC(=C=CC[C@H](O)c1ccccc1OCCO)C[C@H](O)COCc1ccccc1" : is its composite z-score no less than 0.2?
n

Entry "C=CC[C@@]1(C(=O)N(C)C)N=C(c2ccc(OCCCO)cc2)O[C@@H]1c1ccccc1CN=[N+]=[N-]" : is its composite z-score no less than 0.2?
y

Entry "O=C1O[C@H](Cc2ccccc2)[C@@H]2[C@H]3C=CCCC=C3CN2[C@H]1Cc1ccc(O)cc1" : is its composite z-score no less than 0.2?
n

Entry O=C1NC(=O)C2C1C=CC(C(O)c1ccc(B(O)O)cc1)N2Nc1ccc(Cl)cc1Cl (configuration not stated) : is its composite z-score no less than 0.2?
n

Entry "O=C1N(CCS(=O)(=O)c2ccccc2)c2ccccc2C[C@]12N=C(c1ccc(OCCCO)cc1)O[C@@H]2c1ccccc1" : is its composite z-score no less than 0.2?
y

* * *

We begin with a simple list: items and their reported composite z-score.
# assay.notes: binders of probe aHhip on microarray, primary screen, stem cell growth factor project, biochemical, small-molecule microarray, fluorescence 635/667 (AID 1087);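 further: score merges spot fluorescence at 667nm with spot signal to noise ratio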
# test.parameters: higher = more signal
Reply briefly: the number, and no unit.

Retrieve composite z-score measured for CC(C)=CCCC(C)=CC(O)C1C=CC2C(=O)NC(=O)C2N1Nc1ccccn1 (centres undefined) and print it.
-0.109

Retrieve composite z-score measured for "O=C(N1CCOCC1)[C@@]1(Cc2ccccc2)COC(c2ccc(OCCCO)cc2)=N1" and print it.
0.264

New cases:
Retrieve composite z-score measured for "[N-]=[N+]=Nc1ccccc1C[C@@]1(C(=O)NCc2ccccc2)N=C(c2ccc(OCCCO)cc2)O[C@@H]1c1ccccc1N=[N+]=[N-]" and print it.
-0.175

Retrieve composite z-score measured for "C[N+](C)(C)CCCCNC(=O)[C@H]1C[C@H]2C(=O)N[C@@H](Cc3ccccc3)C(=O)N2[C@H]1c1cccc(OCCO)c1" and print it.
0.0373

* * *

# assay.notes: inhibition of PAO1 biofilm formation – strain PAO1, LB-PBS medium, absorbance 600 nm, primary screen (AID 1176); further: test concentration not given here
# test.parameters: P. aeruginosa PAO1 growth/biofilm, A600, 12 h; higher = more signal
Decision: z-score >= -0.3 yields Yes, all other cases yield No.

These solved cases illustrate the format of a correct answer.
Entry "CO[C@H]1O[C@H](CO)[C@@H](OC(=O)Nc2ccccc2-c2ccccc2)[C@H](OC(=O)Nc2ccccc2)[C@H]1OC(=O)Nc1ccccc1" : is its z-score no less than -0.3?
Yes

Entry "C=C(/C(=C/C[C@@H](OC(C)=O)c1cccc(OCCO)c1)c1cnc2ccccc2c1)C(C)C" : is its z-score no less than -0.3?
Yes

Entry C=CCC(OC(C)=O)[C@@H]1[C@@H](N(Cc2ccc(-c3cccc(C(F)(F)F)c3)o2)C(=O)c2ccc(-c3ccccc3)cc2)c2cc(OCCCO)ccc2N1C(=O)c1ccc2ccccc2c1 (stereo not given in full) : is its z-score no less than -0.3?
No

New cases:
Entry "Cc1ccc(S[C@]2(C(=O)NCCCN(C)C)CC(=O)N(C3Cc4ccccc4C3)[C@@H]2c2ccc(CO)cc2I)cc1" : is its z-score no less than -0.3?
Yes

Entry [N-]=[N+]=NCc1ccccc1[C@@H]1OC(c2ccc(OCCCO)cc2)=N[C@]1(Cc1ccccc1N=[N+]=[N-])C(=O)NCC(O)CO (stereo not given in full) : is its z-score no less than -0.3?
Yes

Entry "C=C(COC)/C(=C/C[C@H](OC(C)=O)c1ccccc1OCCO)c1cc(C(=O)OC)ccc1OC" : is its z-score no less than -0.3?
No

Entry CC1CC/C=C\[C@H]2OC34C=CCN(c5ccc(Cl)cc5)C(=O)[C@H]3N(CCCCCCO)C(=O)[C@]4(C)C2C(=O)O1 (stereo not given in full) : is its z-score no less than -0.3?
No

Entry "O=C1O[C@@H](c2ccccc2)[C@@H](c2ccccc2)N2[C@@H](c3ccc(OCCO)cc3)[C@]3(C(=O)Nc4ccc(C#CC5(O)CCCCCC5)cc43)[C@@H](C(=O)Nc3nc4ccccc4s3)[C@H]12" : is its z-score no less than -0.3?
Yes

Entry CCC(CC)C(O)C1C=CC2C(=O)N(c3ccccc3)C(=O)C2N1Nc1ccccc1F (stereo not given) : is its z-score no less than -0.3?
Yes

Entry O=C1C2C=CC(C(O)c3cccs3)N(Nc3ccc([N+](=O)[O-])cc3)C2C(=O)N1c1ccccc1 (stereo not given) : is its z-score no less than -0.3?
Yes

* * *

# assay.notes: probe aNOTCH2 binding on compound microarray – biochemical, small-molecule microarray, 635/667 nm fluorescence, primary screen (AID 1121);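 further: score merges feature fluorescence read at 667 nm with its signal to noise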
# test.parameters: higher = more signal
measurement.kind: composite z-score
Reply briefly: the number, and no unit.

Retrieve composite z-score measured for "O=C1O[C@@H](c2ccccc2)[C@@H](c2ccccc2)N2[C@@H](c3ccc(OCCO)cc3)[C@]3(C(=O)Nc4ccc(C#CC5(O)CCCCCC5)cc43)[C@@H](C(=O)O)[C@H]12" and print it.
-0.0725

Retrieve composite z-score measured for "CC(C)NC(=O)[C@@]1(C)c2ccccc2C(=O)N(Cc2ccccc2)[C@H]1c1ccc(CO)cc1" and print it.
-0.153

Retrieve composite z-score measured for "Cc1ccc(S[C@]2(C(=O)NC3CC3)CC(=O)N(C(C)C)[C@@H]2c2ccc(CO)cc2I)cc1" and print it.
-0.2

New cases:
Retrieve composite z-score measured for "C=CC[C@@]1(C(=O)N(C)C)N=C(c2ccc(OCCCO)cc2)O[C@@H]1c1ccccc1CN=[N+]=[N-]" and print it.
0.0674

Retrieve composite z-score measured for CC1CC/C=C\[C@H]2OC34C=CCN(Cn5nnc6ccccc65)C(=O)[C@H]3N(CCCCCCO)C(=O)[C@@H]4C2C(=O)O1 (stereo not given in full) and print it.
-0.214

Retrieve composite z-score measured for "C=C(/C(=C/C[C@@H](OC(C)=O)c1cccc(OCCO)c1)c1cnc2ccccc2c1)C(C)C" and print it.
-0.124

Retrieve composite z-score measured for COc1ccc(C(O)C2C=CC3C(=O)N(c4ccccc4)C(=O)C3N2Nc2ccc([N+](=O)[O-])cc2)c2ccccc12 (stereo not given) and print it.
0.0702

Retrieve composite z-score measured for [N-]=[N+]=Nc1ccccc1[C@H]1OC(c2ccc(OCCCO)cc2)=N[C@@]1(Cc1ccccc1)C(=O)NCC(O)CO (stereo not given in full) and print it.
-0.174

Retrieve composite z-score measured for "O=C(NCc1ccccc1)[C@@H]1c2ccccc2C(=O)N(Cc2ccc(OC(F)(F)F)cc2)[C@H]1c1ccc(CO)cc1" and print it.
-0.11

Retrieve composite z-score measured for "O=C(NCc1ccccc1)[C@@H]1c2ccccc2C(=O)N(Cc2cc(C(F)(F)F)cc(C(F)(F)F)c2)[C@H]1c1ccc(CO)cc1" and print it.
-0.008

Retrieve composite z-score measured for O=C1C2C=CC(C(O)c3ccc([N+](=O)[O-])cc3)N(Nc3ccccc3F)C2C(=O)N1c1ccccc1 (stereo not given) and print it.
0.0323

Retrieve composite z-score measured for "O=C1[C@@H]2[C@@H](CC(COc3ccccc3)=C([C@H](O)CCc3ccccc3)[C@@H]2CO)C(=O)N1Cc1ccccc1" and print it.
-0.148

Retrieve composite z-score measured for "COCCCN1C(=O)[C@@]2(c3ccc([N+](=O)[O-])cc3)CC(=O)N(CC34CC5CC(CC(C5)C3)C4)[C@@H]2c2ccc(CO)cc21" and print it.
-0.0666

Retrieve composite z-score measured for "COC(=O)[C@]1(CCC(=O)OC(C)(C)C)N=C(c2ccc(OCCCO)cc2)O[C@@H]1c1ccccc1N=[N+]=[N-]" and print it.
-0.0618

Retrieve composite z-score measured for "C=CCN1Cc2ccccc2[C@H]2OC(c3ccc(OCCCO)cc3)=N[C@@]2(CCS(=O)(=O)c2ccccc2)C1=O" and print it.
-0.0135
